Target: T1, PUF4 RNA-binding domain (Saccharomyces cerevisiae, UniProt P25339 537-888)
T1 sequence: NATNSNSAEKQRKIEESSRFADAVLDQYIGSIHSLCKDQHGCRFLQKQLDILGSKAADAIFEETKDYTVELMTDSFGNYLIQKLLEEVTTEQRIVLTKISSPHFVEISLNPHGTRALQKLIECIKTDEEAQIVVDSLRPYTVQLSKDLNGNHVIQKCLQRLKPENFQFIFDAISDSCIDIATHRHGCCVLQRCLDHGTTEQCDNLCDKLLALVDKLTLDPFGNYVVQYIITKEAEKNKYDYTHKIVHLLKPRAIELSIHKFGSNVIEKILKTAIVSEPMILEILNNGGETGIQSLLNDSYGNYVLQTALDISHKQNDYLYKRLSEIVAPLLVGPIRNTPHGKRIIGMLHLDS
Test: Mg; RNA-MaP; 20 mM Na-HEPES pH 7.4, 30 mM KOAc, 0.75 mM MgCl2, 0.1% Tween-20, 5% glycerol, 0.1 mg/mL BSA, 2 mM DTT; 25 C; 0.0125-409.6 nM protein
Conditions: tags: N-His6-TEV cleaved; C-SNAP kept, Cy3B-labelled; label: tethered on chip by stalled RNA polymerase
property-label: pKd
Convention used: pKd is expressed as -log10 of the molar concentration.

Prompt line: Entry Ic_S2_P5E.1_K5.1_C5.1_H5.1_A5.1_[T5A]_[T6A]_[A7T]_F5.1_[T8C]_[A10T]_T5.1 (ssRNA) RNA: UUUGAUUAAUAUGAUAUCGUUCUUUCUUGUAAAUCUUUUCUUUCUCGAUAUCAUAUUAAUCUUU : reported pKd = ?
Response line: 7.12

Prompt line: Follow-up entry: ACAAACUGUAUAUUCCUAACAAAC (ssRNA) [Ie_S3_P4E.1_K4.1_C4.1_H4.1_A4.1_[+7TCC]_F4.1_T4.1]
Response line: 8.14

Prompt line: Follow-up entry: Id_i_S2_P3E.7_K3.3_C3.3_[T-3A]_[C-2T]_[T-1A]_H3.3_A3.1_F3.1_T3.2 (ssRNA) RNA: UUUGAUUAAUAUGAUAUCGUUCUUUCUAUAACACUAUAUAUUCUUUCUCGAUAUCAUAUUAAUCUUU
Response line: 6.15
